Could you please report measured CC50 at 72 h for the items listed next?
test: Cytotoxicity against Vero cells (CPE monitoring, neutral red uptake); assay type: cell-based; settings: African green monkey; Vero cells, 72 h, neutral red uptake; three independent experiments

// below: answered compounds
- compound: "NC(=O)c1ncn([C@@H]2O[C@H](CO)[C@@H](O)[C@H]2O)n1"
  CC50 at 72 h: "> 2000 µM"
- compound: "CCCCOc1cnc(O)c(C(N)=O)n1 [Compound 16, 6-butoxy-3-hydroxypyrazine-2-carboxamide]"
  CC50 at 72 h: "310 µM"
- compound: "NC(=O)c1nc(F)cn(CC(O)COC(c2ccccc2)(c2ccccc2)c2ccccc2)c1=O (stereo not shown)"
  CC50 at 72 h: "> 500 µM"

Report CC50 at 72 h for each item below.
1. NC(=O)c1nc(F)cn(C2OC(CO)C(O)C2O)c1=O (stereo not shown)
2. CC(C)Oc1cnc(O)c(C(N)=O)n1
3. NC(=O)c1nc(Br)cnc1O [Compound 11, 6-bromo-3-hydroxypyrazine-2-carboxamide]
4. NC(=O)c1nc([N+](=O)[O-])cnc1O [Compound 10, 6-nitropyrazine-3-hydroxy-2-carboxamide]
5. CCCCCOc1cnc(O)c(C(N)=O)n1
6. CCCOc1cnc(O)c(C(N)=O)n1
7. NC(=O)c1nccn(CC(O)CO)c1=O (stereo not shown)
8. CC(=O)OCCOCn1cc(F)nc(C(N)=O)c1=O

Reply text:
1: > 1000 µM; 2: 345 µM; 3: > 2000 µM; 4: > 4000 µM; 5: 260 µM; 6: > 500 µM; 7: > 2000 µM; 8: > 1000 µM

# batch: return CC50 at 72 h for each of the 2 compounds below
1. NC(=O)c1nc(OCCO)cnc1O
2. NC(=O)c1nccn(CC(O)COC(c2ccccc2)(c2ccccc2)c2ccccc2)c1=O (stereo not shown)

Reply text:
["> 1000 µM", "> 500 µM"]

###

assay: Cytotoxicity against Vero cells (CPE monitoring, neutral red uptake); format: cell-based; conditions: African green monkey; Vero cells, 72 h, neutral red uptake; three independent experiments
measure: CC50 at 72 h

Use these answered entries as a reference point.
- compound: "COCCOc1cnc(O)c(C(N)=O)n1 [Compound 20]"
  measure: "CC50 at 72 h"
  measured-result: "> 1 mM"
- compound: "NC(=O)c1nc(F)c[nH]c1=O [Compound T-705, favipiravir]"
  measure: "CC50 at 72 h"
  measured-result: "> 3 mM"

I have 2 compounds here; please give me CC50 at 72 h for each one.
1. CC(=O)OCCOCn1ccnc(C(N)=O)c1=O [Compound 2]
2. CCCCCCCCOc1cnc(O)c(C(N)=O)n1 [Compound 18]

Reply text:
["> 2 mM", "0.245 mM"]

###

test system: ZIKV strain SZ01; assay: CPE inhibition assay, anti-ZIKV activity in Vero cells; format: cell-based, Zika virus; settings: Zika virus; ZIKV strain SZ01, 68.6 TCID50, Vero cells, neutral red uptake; three independent experiments
measure: pEC50
Numbers only, as −log10 of the molar value.

- molecule: "NC(=O)c1nccnc1O [Compound T-1105, 3-hydroxypyrazine-2-carboxamide]"
  measured-result: 4.01

Inquiry: So what does the record say about pEC50 for `NC(=O)c1nc(F)c[nH]c1=O` ?
Reply text: 3.96

###

experiment: Cytotoxicity against Vero cells (CPE monitoring, neutral red uptake); type: cell-based; details: African green monkey; Vero cells, 72 h, neutral red uptake; three independent experiments
measure: CC50 at 72 h

# example entries with known answers
- molecule: "NC(=O)c1nccnc1O [Compound T-1105, 3-hydroxypyrazine-2-carboxamide]"
  CC50 at 72 h: "> 4000 µM"
- molecule: "COc1cnc(O)c(C(N)=O)n1 [Compound 12]"
  CC50 at 72 h: "> 1000 µM"

Report CC50 at 72 h for every entry below.
1. NC(=O)c1nccn(C2OC(CO)C(O)C2O)c1=O (stereo not drawn) [Compound 6]
2. CCn1ccnc(C(N)=O)c1=O [Compound 1]
3. CCOc1cnc(O)c(C(N)=O)n1 [Compound 13, 6-ethoxy-3-hydroxypyrazine-2-carboxamide]
4. NC(=O)c1nccn(COCCO)c1=O [Compound 3]

Reply text:
1: > 1000 µM; 2: > 1000 µM; 3: > 500 µM; 4: > 1000 µM
